# EXPERIMENTAL PROTOCOL: Volume of distribution at steady state in Sprague-Dawley rat at 1 mg/kg, iv by LC-MS/MS analysis
# Assay type: ADME, organism-based
# EXPERIMENTAL CONDITIONS: in vivo, read-out: Vdss
REPORTED METRIC: Vd (L/kg)
Respond with the bare value in L/kg.

Query (molecule): "COc1ccc(Cl)cc1-c1cc(C)ncc1C(=O)Nc1nnc(OCC2CCN(C(=O)c3cc(Cc4n[nH]c(=O)c5ccccc45)ccc3F)CC2)s1" ; field requested: Vd
1.12

###

# EXPERIMENTAL PROTOCOL: Metabolic stability in rat liver microsome assessed as intrinsic clearance
# Assay type: ADME
# EXPERIMENTAL CONDITIONS: liver microsomes, read-out: CLH
REPORTED METRIC: CLint scaled (mL/min/kg)
Respond with the bare value in mL/min/kg.

Query (molecule): "COc1ccc(Cl)cc1-c1cc(C)ncc1C(=O)Nc1nnc(OCC2CCN(C(=O)c3cc(Cc4n[nH]c(=O)c5ccccc45)ccc3F)CC2)s1" ; field requested: CLint scaled
802

###

# TESTED TARGET: UniProt Q9Y6F1
# Sequence (Q9Y6F1 whole entry): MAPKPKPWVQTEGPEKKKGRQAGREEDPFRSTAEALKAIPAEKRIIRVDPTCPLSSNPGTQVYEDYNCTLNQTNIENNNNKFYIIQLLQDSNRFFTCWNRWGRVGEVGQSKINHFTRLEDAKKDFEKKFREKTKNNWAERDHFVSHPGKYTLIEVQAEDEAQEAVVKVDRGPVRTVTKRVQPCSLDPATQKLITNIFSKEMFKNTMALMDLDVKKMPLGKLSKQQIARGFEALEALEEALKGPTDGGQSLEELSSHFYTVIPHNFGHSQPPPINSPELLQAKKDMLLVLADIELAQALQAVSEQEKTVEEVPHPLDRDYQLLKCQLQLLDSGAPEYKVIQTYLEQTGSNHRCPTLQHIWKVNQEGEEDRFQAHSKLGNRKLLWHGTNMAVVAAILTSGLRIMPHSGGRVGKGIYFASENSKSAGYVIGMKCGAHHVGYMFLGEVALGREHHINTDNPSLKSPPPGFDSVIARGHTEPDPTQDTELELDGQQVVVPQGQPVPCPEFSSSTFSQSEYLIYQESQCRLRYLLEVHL
# EXPERIMENTAL PROTOCOL: Inhibition of PARP3 (unknown origin)
REPORTED METRIC: IC50 (nM)
Respond with the bare value in nM.

Return IC50 measured with UniProt Q9Y6F1 given this compound: "COc1ccc(Cl)cc1-c1cc(C)ncc1C(=O)Nc1nnc(OCC2CCN(C(=O)c3cc(Cc4n[nH]c(=O)c5ccccc45)ccc3F)CC2)s1"
51.2

###

# TESTED TARGET: Poly [ADP-ribose] polymerase 1 (Homo sapiens)
# Sequence (P09874 whole entry): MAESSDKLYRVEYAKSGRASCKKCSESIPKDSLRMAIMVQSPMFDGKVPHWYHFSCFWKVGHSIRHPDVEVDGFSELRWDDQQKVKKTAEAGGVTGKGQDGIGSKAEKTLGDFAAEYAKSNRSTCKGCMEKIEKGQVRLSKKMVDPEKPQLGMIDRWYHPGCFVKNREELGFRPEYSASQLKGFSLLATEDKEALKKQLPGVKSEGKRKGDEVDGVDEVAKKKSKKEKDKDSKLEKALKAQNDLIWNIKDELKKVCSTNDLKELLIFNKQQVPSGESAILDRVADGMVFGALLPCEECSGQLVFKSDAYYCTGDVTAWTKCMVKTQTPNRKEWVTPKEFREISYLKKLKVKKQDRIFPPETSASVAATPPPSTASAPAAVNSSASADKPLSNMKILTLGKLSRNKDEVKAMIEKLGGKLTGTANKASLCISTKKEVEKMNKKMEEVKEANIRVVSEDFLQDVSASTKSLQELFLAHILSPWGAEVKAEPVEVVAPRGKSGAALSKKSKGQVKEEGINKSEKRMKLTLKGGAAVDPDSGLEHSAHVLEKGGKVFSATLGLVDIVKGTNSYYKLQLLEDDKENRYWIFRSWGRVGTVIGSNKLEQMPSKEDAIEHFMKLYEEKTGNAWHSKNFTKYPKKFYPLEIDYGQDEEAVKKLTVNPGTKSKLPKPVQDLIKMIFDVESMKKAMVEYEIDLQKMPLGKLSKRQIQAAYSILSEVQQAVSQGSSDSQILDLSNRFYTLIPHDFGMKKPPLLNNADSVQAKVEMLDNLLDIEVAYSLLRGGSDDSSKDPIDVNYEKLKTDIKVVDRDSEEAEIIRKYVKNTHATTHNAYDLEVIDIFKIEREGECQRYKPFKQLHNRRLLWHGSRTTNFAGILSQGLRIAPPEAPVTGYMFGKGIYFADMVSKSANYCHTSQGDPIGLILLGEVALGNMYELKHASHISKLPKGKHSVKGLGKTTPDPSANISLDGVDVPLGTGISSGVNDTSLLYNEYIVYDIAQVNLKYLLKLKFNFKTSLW
# EXPERIMENTAL CONDITIONS: dose 10.0 nM, time 90.0 min
Entries and their inhibition values follow.
Respond with the bare value in %.

Below, 5 compounds whose answers are already recorded.
COc1ccc(Cl)cc1-c1cc(C)ncc1C(=O)Nc1nnc(OCC2CCN(C(=O)c3cc(Cc4n[nH]c(=O)c5ccccc45)ccc3F)CC2)s1; 71.1
COc1ccccc1-c1cnccc1C(=O)Nc1nnc(OCC2CN(C(=O)c3cc(Cc4n[nH]c(=O)c5ccccc45)ccc3F)C2)s1; 36.9
COc1ccccc1-c1cnccc1C(=O)Nc1nnc(N2CCN(C(=O)c3cc(Cc4n[nH]c(=O)c5ccccc45)ccc3F)CC2)s1; 91.4
COc1ccccc1-c1cnccc1C(=O)Nc1nnc(OC2CC3(C2)CN(C(=O)c2cc(Cc4n[nH]c(=O)c5ccccc45)ccc2F)C3)s1; 56.4
COc1ccccc1-c1cnccc1C(=O)Nc1nnc(OC2CC3(CCN(C(=O)c4cc(Cc5n[nH]c(=O)c6ccccc56)ccc4F)CC3)C2)s1; 47

Query (compound): "COc1ccccc1-c1cnccc1C(=O)Nc1nnc(N2CC3(CCN(C(=O)c4cc(Cc5n[nH]c(=O)c6ccccc56)ccc4F)CC3)C2)s1" ; field requested: inhibition
82.8

Query (compound): "COc1ccc(F)cc1-c1cc(C)ncc1C(=O)Nc1nnc(OC2CC3(CCN(C(=O)c4cc(Cc5n[nH]c(=O)c6ccccc56)ccc4F)CC3)C2)s1" ; field requested: inhibition
70.1

Query (compound): "COc1cccc(F)c1-c1cc(C)ncc1C(=O)Nc1nnc(OC2CC3(CCN(C(=O)c4cc(Cc5n[nH]c(=O)c6ccccc56)ccc4F)CC3)C2)s1" ; field requested: inhibition
72.8

Query (compound): "COc1ccccc1-c1cnccc1C(=O)Nc1nnc(OCc2cc(Cc3n[nH]c(=O)c4ccccc34)ccc2F)s1" ; field requested: inhibition
30.3

Query (compound): "COc1ccccc1-c1cnccc1C(=O)N1CCN(C(=O)c2cc(Cc3n[nH]c(=O)c4ccccc34)ccc2F)CC1" ; field requested: inhibition
87.9

Query (compound): "COc1ccccc1-c1cnccc1C(=O)Nc1ncc(N2CCN(C(=O)c3cc(Cc4n[nH]c(=O)c5ccccc45)ccc3F)CC2)s1" ; field requested: inhibition
93.1

Query (compound): "COc1ccc(Cl)cc1-c1cc(C)ncc1C(=O)Nc1nnc(OC2CC3(CCN(C(=O)c4cc(Cc5n[nH]c(=O)c6ccccc56)ccc4F)CC3)C2)s1" ; field requested: inhibition
66.9

Query (compound): "COc1ccccc1-c1cnccc1C(=O)Nc1nnc(OCC2CCN(C(=O)c3cc(Cc4n[nH]c(=O)c5ccccc45)ccc3F)CC2)s1" ; field requested: inhibition
91.6

###

# EXPERIMENTAL PROTOCOL: Metabolic stability in human liver microsome assessed as half life
# Format: ADME
# EXPERIMENTAL CONDITIONS: liver microsomes
REPORTED METRIC: half-life

Query (molecule): "COc1ccc(Cl)cc1-c1cc(C)ncc1C(=O)Nc1nnc(OCC2CCN(C(=O)c3cc(Cc4n[nH]c(=O)c5ccccc45)ccc3F)CC2)s1" ; field requested: half-life
2.35 min

###

# EXPERIMENTAL PROTOCOL: MRT (0 to infinity) in Sprague-Dawley rat at 1 mg/kg, iv by LC-MS/MS analysis
# Type: ADME, organism-based
# EXPERIMENTAL CONDITIONS: in vivo
REPORTED METRIC: MRT inf (min)
Respond with the bare value in min.

Query (compound): "COc1ccc(Cl)cc1-c1cc(C)ncc1C(=O)Nc1nnc(OCC2CCN(C(=O)c3cc(Cc4n[nH]c(=O)c5ccccc45)ccc3F)CC2)s1" ; field requested: MRT inf
36

###

# TESTED TARGET: Protein mono-ADP-ribosyltransferase PARP8 (Homo sapiens, UniProt Q8N3A8)
# Sequence (Q8N3A8 whole entry): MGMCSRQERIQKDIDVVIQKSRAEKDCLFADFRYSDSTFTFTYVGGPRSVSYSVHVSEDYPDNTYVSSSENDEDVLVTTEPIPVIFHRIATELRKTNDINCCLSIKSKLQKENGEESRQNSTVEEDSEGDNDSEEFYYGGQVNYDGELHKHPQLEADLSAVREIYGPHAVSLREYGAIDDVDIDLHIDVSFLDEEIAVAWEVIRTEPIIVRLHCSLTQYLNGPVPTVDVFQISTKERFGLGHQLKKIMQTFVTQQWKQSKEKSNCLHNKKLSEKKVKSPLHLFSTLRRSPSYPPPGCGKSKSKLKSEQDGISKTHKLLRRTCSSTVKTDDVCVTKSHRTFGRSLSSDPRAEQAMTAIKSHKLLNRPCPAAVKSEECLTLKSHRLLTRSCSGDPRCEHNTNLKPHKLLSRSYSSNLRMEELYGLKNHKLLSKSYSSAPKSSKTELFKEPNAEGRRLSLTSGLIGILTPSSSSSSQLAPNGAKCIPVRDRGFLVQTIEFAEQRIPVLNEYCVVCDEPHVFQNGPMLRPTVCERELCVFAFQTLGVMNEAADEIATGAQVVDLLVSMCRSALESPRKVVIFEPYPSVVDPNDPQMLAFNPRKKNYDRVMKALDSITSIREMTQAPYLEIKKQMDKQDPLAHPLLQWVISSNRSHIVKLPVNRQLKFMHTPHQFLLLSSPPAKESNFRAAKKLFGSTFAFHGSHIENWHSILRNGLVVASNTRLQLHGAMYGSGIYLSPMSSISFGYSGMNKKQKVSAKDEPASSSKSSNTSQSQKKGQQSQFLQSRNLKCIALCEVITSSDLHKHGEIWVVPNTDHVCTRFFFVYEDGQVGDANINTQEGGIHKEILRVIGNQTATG
REPORTED METRIC: IC50
Param answer (str): number followed by unit.

Query (molecule): "COc1ccc(Cl)cc1-c1cc(C)ncc1C(=O)Nc1nnc(OCC2CCN(C(=O)c3cc(Cc4n[nH]c(=O)c5ccccc45)ccc3F)CC2)s1" ; field requested: IC50
2.93 µM

###

# TESTED TARGET: DNA polymerase theta (Homo sapiens)
# Sequence (O75417 whole entry): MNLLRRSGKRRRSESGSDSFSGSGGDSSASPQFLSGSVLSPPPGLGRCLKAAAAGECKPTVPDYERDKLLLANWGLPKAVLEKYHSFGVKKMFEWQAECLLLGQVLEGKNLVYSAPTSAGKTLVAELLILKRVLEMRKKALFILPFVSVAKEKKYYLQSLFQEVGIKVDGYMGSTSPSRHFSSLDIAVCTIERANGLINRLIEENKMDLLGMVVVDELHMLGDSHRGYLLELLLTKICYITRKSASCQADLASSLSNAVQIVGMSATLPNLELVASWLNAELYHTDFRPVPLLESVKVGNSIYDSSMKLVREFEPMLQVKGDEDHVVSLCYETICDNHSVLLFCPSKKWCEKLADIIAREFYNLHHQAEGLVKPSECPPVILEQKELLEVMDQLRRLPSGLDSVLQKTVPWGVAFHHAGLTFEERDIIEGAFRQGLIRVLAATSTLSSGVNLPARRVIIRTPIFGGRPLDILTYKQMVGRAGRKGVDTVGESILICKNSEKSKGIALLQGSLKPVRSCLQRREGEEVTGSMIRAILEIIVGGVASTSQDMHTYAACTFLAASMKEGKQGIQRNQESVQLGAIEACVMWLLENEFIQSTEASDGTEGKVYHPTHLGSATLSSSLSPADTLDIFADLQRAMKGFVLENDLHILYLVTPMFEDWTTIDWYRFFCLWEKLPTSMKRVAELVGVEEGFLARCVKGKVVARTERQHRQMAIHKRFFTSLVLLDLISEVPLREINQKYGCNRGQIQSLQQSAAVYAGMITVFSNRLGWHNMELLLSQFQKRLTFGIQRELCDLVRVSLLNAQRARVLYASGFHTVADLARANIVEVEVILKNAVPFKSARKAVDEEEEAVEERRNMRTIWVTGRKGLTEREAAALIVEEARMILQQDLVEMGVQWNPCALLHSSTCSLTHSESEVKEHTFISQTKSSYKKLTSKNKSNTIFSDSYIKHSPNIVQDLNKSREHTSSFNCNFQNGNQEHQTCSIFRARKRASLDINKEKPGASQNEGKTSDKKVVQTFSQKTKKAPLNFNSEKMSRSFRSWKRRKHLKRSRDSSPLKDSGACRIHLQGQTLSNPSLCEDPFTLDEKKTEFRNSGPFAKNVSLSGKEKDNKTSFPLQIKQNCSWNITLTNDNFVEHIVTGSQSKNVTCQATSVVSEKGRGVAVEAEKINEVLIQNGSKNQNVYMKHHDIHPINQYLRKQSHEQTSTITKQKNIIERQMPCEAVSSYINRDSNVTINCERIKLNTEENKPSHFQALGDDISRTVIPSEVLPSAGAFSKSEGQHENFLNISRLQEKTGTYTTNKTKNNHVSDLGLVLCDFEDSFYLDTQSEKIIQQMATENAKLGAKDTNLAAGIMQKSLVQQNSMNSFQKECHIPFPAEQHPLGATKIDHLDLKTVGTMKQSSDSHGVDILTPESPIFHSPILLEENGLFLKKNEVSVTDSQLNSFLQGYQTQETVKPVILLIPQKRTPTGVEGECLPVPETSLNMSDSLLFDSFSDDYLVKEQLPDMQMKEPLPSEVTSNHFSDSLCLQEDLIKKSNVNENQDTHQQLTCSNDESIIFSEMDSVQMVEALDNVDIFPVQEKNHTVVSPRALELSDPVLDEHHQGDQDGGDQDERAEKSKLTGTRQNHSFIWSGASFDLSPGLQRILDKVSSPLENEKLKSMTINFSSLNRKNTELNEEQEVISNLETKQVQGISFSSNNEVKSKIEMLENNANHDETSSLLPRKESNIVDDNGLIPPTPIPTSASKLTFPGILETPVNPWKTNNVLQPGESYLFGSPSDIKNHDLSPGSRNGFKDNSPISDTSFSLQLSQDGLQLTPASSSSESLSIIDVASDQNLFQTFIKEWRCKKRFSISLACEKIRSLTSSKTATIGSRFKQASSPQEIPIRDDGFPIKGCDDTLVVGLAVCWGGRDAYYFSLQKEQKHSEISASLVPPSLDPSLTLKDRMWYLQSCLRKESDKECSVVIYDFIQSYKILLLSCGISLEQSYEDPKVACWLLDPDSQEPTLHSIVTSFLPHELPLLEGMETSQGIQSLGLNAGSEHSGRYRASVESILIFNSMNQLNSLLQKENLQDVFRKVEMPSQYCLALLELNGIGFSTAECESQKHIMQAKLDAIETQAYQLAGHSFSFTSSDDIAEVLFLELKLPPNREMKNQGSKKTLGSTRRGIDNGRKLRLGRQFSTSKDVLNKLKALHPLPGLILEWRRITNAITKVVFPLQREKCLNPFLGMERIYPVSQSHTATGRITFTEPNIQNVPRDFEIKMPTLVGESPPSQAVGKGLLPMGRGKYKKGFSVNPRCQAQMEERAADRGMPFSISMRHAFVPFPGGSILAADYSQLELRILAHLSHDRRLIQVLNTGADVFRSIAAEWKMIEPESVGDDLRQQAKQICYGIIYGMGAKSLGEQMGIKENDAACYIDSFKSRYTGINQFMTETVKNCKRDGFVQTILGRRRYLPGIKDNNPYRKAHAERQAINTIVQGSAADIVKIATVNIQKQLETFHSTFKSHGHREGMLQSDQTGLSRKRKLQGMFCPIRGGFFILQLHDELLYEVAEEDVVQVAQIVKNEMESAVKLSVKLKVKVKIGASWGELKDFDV
# EXPERIMENTAL PROTOCOL: Inhibition of DNA polymerase theta (unknown origin) ATPase activity incubated for 60 mins in presence of ATP by ADP-glo kinase assay
Entries and their IC50 values follow.
Respond with the bare value in nM.

COc1ccc(F)cc1-c1cc(C)ncc1C(=O)Nc1nnc(OC2CC3(CCN(C(=O)c4cc(Cc5n[nH]c(=O)c6ccccc56)ccc4F)CC3)C2)s1; 71.9
COc1ccccc1-c1cnccc1C(=O)Nc1nnc(OCC2CCN(C(=O)c3cc(Cc4n[nH]c(=O)c5ccccc45)ccc3F)CC2)s1; 117
COc1cccc(F)c1-c1cc(C)ncc1C(=O)Nc1nnc(OC2CC3(CCN(C(=O)c4cc(Cc5n[nH]c(=O)c6ccccc56)ccc4F)CC3)C2)s1; 79.3
COc1ccc(Cl)cc1-c1cc(C)ncc1C(=O)Nc1nnc(OC2CC3(CCN(C(=O)c4cc(Cc5n[nH]c(=O)c6ccccc56)ccc4F)CC3)C2)s1; 59.8

Query (molecule): "COc1ccccc1-c1cnccc1C(=O)Nc1nnc(OCc2ccc(Cl)cc2)s1" ; field requested: IC50
2.4

###

# EXPERIMENTAL PROTOCOL: Clearance in Sprague-Dawley rat at 1 mg/kg, iv by LC-MS/MS analysis
# Assay type: ADME, organism-based
# EXPERIMENTAL CONDITIONS: in vivo
REPORTED METRIC: clearance (mL/min/kg)
Respond with the bare value in mL/min/kg.

Query (compound): "COc1ccc(Cl)cc1-c1cc(C)ncc1C(=O)Nc1nnc(OCC2CCN(C(=O)c3cc(Cc4n[nH]c(=O)c5ccccc45)ccc3F)CC2)s1" ; field requested: clearance
22.7

###

# EXPERIMENTAL PROTOCOL: AUC (0 to infinity) in Sprague-Dawley rat at 1 mg/kg, iv by LC-MS/MS analysis
# Format: ADME, organism-based
# EXPERIMENTAL CONDITIONS: in vivo
REPORTED METRIC: AUC(0-inf) (ng·h/mL)
Respond with the bare value in ng·h/mL.

Query (molecule): "COc1ccc(Cl)cc1-c1cc(C)ncc1C(=O)Nc1nnc(OCC2CCN(C(=O)c3cc(Cc4n[nH]c(=O)c5ccccc45)ccc3F)CC2)s1" ; field requested: AUC(0-inf)
738
